# reported pIC50; entries follow
# measurement.target: SARS-CoV-2 3CLpro (Severe acute respiratory syndrome coronavirus 2)
# experimental.details: biochemical
Notebook: values listed as pIC50 are -log10 of the concentration (mol/L).

Worked examples follow.
CC[C@H](C)[C@H](NC(=O)C(C)C)C(=O)N1C[C@H]2[C@@H]([C@H]1C(=O)NN(C[C@@H]1CCNC1=O)C(=O)[C@H](F)Cl)C2(C)C = 8.05
CC(C)(C)[C@H](NC(=O)C(F)(F)F)C(=O)N1C[C@@H]2C[C@@H]2[C@H]1C(=O)NN(C[C@@H]1CCNC1=O)C(=O)[C@H](F)Cl = 7.92

Please give the measured pIC50 for this compound: CC1(C)[C@@H]2[C@@H](C(=O)NN(C[C@@H]3CCNC3=O)C(=O)[C@H](F)Cl)N(C(=O)[C@H](Cc3ccccc3)NC(=O)C(F)(F)F)C[C@@H]21
7.85

* * *

# measurement.target: HCoV-229E 3CLpro (Human coronavirus 229E)
# reported IC50; entries follow
Answer format: numeric, nM implied, no suffix.

Please give the measured IC50 for this molecule: CC(C)(C)[C@H](Nc1ccccn1)C(=O)N1C[C@@H]2CCC[C@@H]2[C@H]1C(=O)NN(C[C@@H]1CCNC1=O)C(=O)[C@H](F)Cl
86

Repeat for the following molecule: CC[C@H](C)[C@H](NC(=O)c1ccccc1)C(=O)N1C[C@@H]2CCC[C@@H]2[C@H]1C(=O)NN(C[C@@H]1CCNC1=O)C(=O)[C@H](F)Cl
20

Repeat for the following molecule: CC(F)(F)C(=O)N[C@H](C(=O)N1C[C@H]2[C@@H]([C@H]1C(=O)NN(C[C@@H]1CCNC1=O)C(=O)[C@@H](F)Cl)C2(C)C)C(C)(C)C
21

* * *

# measurement.target: HCoV-229E 3CLpro (Human coronavirus 229E, UniProt P0C6X1)
# Sequence (P0C6X1 2966-3267): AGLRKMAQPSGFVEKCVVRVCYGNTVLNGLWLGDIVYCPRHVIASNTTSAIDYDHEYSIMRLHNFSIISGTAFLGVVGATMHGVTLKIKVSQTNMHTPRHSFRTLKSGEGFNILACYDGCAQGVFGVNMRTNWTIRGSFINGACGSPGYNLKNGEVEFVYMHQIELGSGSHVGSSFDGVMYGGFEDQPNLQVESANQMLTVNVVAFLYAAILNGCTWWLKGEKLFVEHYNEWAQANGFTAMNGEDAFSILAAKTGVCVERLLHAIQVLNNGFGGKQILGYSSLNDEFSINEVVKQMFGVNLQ
reported.endpoint: IC50 (nM)
Answer format: numeric, nM implied, no suffix.

CC[C@H](C)[C@H](NC(=O)C1(F)CC1)C(=O)N1C[C@H]2[C@@H]([C@H]1C(=O)NN(C[C@@H]1CCNC1=O)C(=O)[C@H](F)Cl)C2(C)C = 21
CC(C)(C)[C@H](NC(=O)[C@@H]1CC1(F)F)C(=O)N1C[C@H]2[C@@H]([C@H]1C(=O)NN(C[C@@H]1CCNC1=O)C(=O)[C@H](F)Cl)C2(C)C = 23
CC(C)(C)[C@H](NC(=O)C(F)(F)F)C(=O)N1C[C@H](C(F)(F)F)C[C@H]1C(=O)NN(C[C@@H]1CCNC1=O)C(=O)[C@H](F)Cl = 21
CCC(C)(C)[C@H](NC(=O)C1CC1)C(=O)N1C[C@@H]2CCC[C@@H]2[C@H]1C(=O)NN(C[C@H]1CCCNC1=O)C(=O)[C@H](F)Cl [Example 167b] = 210
CC[C@H](C)[C@H](NC(=O)C1CC1(F)F)C(=O)N1C[C@@H]2CCC[C@@H]2[C@H]1C(=O)NN(C[C@@H]1CCNC1=O)C(=O)[C@H](F)Cl (mixture of isomers) = 68
CC[C@H](C)[C@H](NC(=O)C(F)F)C(=O)N1C[C@H]2[C@@H]([C@H]1C(=O)NN(C[C@@H]1CCNC1=O)C(=O)[C@H](F)Cl)C2(C)C = 21

Test system HCoV-229E 3CLpro (Human coronavirus 229E, UniProt P0C6X1); read-out IC50; what value for CC(C)C[C@H](NC(=O)C(F)(F)F)C(=O)N1C[C@H]2[C@@H]([C@H]1C(=O)NN(C[C@@H]1CCNC1=O)C(=O)[C@H](F)Cl)C2(C)C ?
38

Repeat for the following compound: CC1(C)C[C@@H](C(=O)NN(C[C@@H]2CCNC2=O)C(=O)[C@H](F)Cl)N(C(=O)[C@@H](NC(=O)C2CC2)C(C)(C)C)C1
28

Repeat for the following compound: CCC(C)(C)[C@H](NC(=O)C(C)F)C(=O)N1C[C@H]2[C@@H]([C@H]1C(=O)NN(C[C@@H]1CCNC1=O)C(=O)[C@@H](F)Cl)C2(C)C (mixture of isomers)
69

Repeat for the following compound: CC[C@H](C)[C@H](NC(=O)[C@H](F)Cl)C(=O)N1C[C@@H]2CCC[C@@H]2[C@H]1C(=O)NN(C[C@H]1CCCNC1=O)C(=O)[C@H](F)Cl
52

Repeat for the following compound: CC[C@H](C)[C@H](NC(=O)C1(F)CC1)C(=O)N1C[C@H](C(F)(F)F)C[C@H]1C(=O)NN(C[C@@H]1CCNC1=O)C(=O)[C@H](F)Cl
24

* * *

SARS-CoV 3CLpro (Severe acute respiratory syndrome coronavirus, UniProt P0C6X7): recorded IC50 for assorted compounds
Answer format: numeric, nM implied, no suffix.

Worked examples follow.
CCC(=O)N[C@H](C(=O)N1C[C@@H]2CCC[C@@H]2[C@H]1C(=O)NN(C[C@@H]1CCNC1=O)C(=O)[C@H](F)Cl)C(C)(C)C = 10
CC[C@H](C)[C@H](NC(=O)C1(F)CC1)C(=O)N1C[C@H]2[C@@H]([C@H]1C(=O)NN(C[C@@H]1CCNC1=O)C(=O)[C@H](F)Cl)C2(C)C = 17

Please give the measured IC50 for this compound: CC(C)(C)[C@H](NC(=O)C(F)(F)F)C(=O)N1C[C@H]2[C@@H]([C@H]1C(=O)NN(C[C@@H]1CCNC1=O)C(=O)[C@@H](F)Cl)C2(C)C
15

* * *

UniProt:P0C6X7: recorded IC50 for assorted compounds
Answer format: numeric, µM implied, no suffix.

Worked examples follow.
CC(C)(C)[C@H](NC(=O)C(F)(F)F)C(=O)N1C[C@@H]2CC[C@@H]2[C@H]1C(=O)NN(C[C@@H]1CCNC1=O)C(=O)[C@H](F)Cl = 0.019
CC(C)(C)[C@H](NC(=O)C(F)(F)F)C(=O)N1C[C@H]2[C@@H]([C@H]1C(=O)NN(Cc1cc[nH]n1)C(=O)[C@H](F)Cl)C2(C)C = 0.373
CC(C)(C)[C@H](NC(=O)C1CC(F)(F)C1)C(=O)N1C[C@H]2[C@@H]([C@H]1C(=O)NN(C[C@@H]1CCNC1=O)C(=O)[C@@H](F)Cl)C2(C)C = 0.054

Please give the measured IC50 for this compound: CC[C@H](C)[C@H](NC(=O)C1(F)CC1)C(=O)N1C[C@@H]2CCC[C@@H]2[C@H]1C(=O)NN(C[C@@H]1CCCNC1=O)C(=O)[C@H](F)Cl [Example 170a]
0.025

* * *

# measurement.target: HCoV-229E 3CLpro (Human coronavirus 229E, UniProt P0C6X1)
reported.endpoint: IC50 (nM)
Answer format: numeric, nM implied, no suffix.

Worked examples follow.
CCC(CC)[C@H](NC(=O)C1CC1)C(=O)N1C[C@@H]2CCC[C@@H]2[C@H]1C(=O)NN(C[C@@H]1CCNC1=O)C(=O)[C@H](F)Cl = 39
CCC(C)(C)[C@H](NC(=O)C(F)(F)F)C(=O)N1C[C@H]2[C@@H]([C@H]1C(=O)NN(C[C@@H]1CCNC1=O)C(=O)[C@H](F)Cl)C2(C)C = 35

We now examine a further compound.
Please give the measured IC50 for this compound: CC[C@H](NC(=O)C(F)(F)F)C(=O)N1C[C@@H]2CCC[C@@H]2[C@H]1C(=O)NN(C[C@@H]1CCNC1=O)C(=O)[C@H](F)Cl
23

* * *

# measurement.target: HCoV-229E 3CLpro (Human coronavirus 229E)
# reported IC50; entries follow
Answer format: numeric, nM implied, no suffix.

CC(C)(C)[C@H](NC(=O)[C@@H]1CC1(F)F)C(=O)N1C[C@H](C(F)(F)F)C[C@H]1C(=O)NN(C[C@@H]1CCNC1=O)C(=O)[C@@H](F)Cl = 40
CC(C)(C)[C@H](NC(=O)[C@@H]1CC1(F)F)C(=O)N1C[C@@H]2CCC[C@@H]2[C@H]1C(=O)NN(C[C@@H]1CCCNC1=O)C(=O)[C@@H](F)Cl = 65

We now examine a further compound.
Test system HCoV-229E 3CLpro (Human coronavirus 229E); read-out IC50; what value for CCC(C)(C)[C@H](NC(=O)C1(F)CC1)C(=O)N1CC(C)(C)C[C@H]1C(=O)NN(C[C@@H]1CCNC1=O)C(=O)[C@H](F)Cl ?
52

* * *

# measurement.target: SARS-CoV-2 3CLpro (Severe acute respiratory syndrome coronavirus 2)
# experimental.details: biochemical
reported.endpoint: pIC50
Notebook: values listed as pIC50 are -log10 of the concentration (mol/L).

Worked examples follow.
CC[C@H](C)[C@H](NC(=O)[C@H](F)Cl)C(=O)N1C[C@H]2[C@@H]([C@H]1C(=O)NN(C[C@@H]1CCCNC1=O)C(=O)[C@H](F)Cl)C2(C)C = 8.10
CC[C@H](C)[C@H](NC(=O)C(C)(F)F)C(=O)N1C[C@H]2[C@@H]([C@H]1C(=O)NN(C[C@@H]1CCNC1=O)C(=O)[C@H](F)Cl)C2(C)C = 8.10
CC[C@H](C)[C@H](NC(=O)[C@H](F)Cl)C(=O)N1C[C@@H]2CCC[C@@H]2[C@H]1C(=O)NN(C[C@H]1CCCNC1=O)C(=O)[C@H](F)Cl = 8.00
CCC(C)(C)[C@H](NC(=O)C1CC1)C(=O)N1C[C@H]2[C@@H]([C@H]1C(=O)NN(C[C@@H]1CCNC1=O)C(=O)[C@@H](F)Cl)C2(C)C = 7.92
CCC(C)(C)[C@H](NC(=O)[C@H](C)F)C(=O)N1C[C@H]2[C@@H]([C@H]1C(=O)NN(C[C@@H]1CCNC1=O)C(=O)[C@H](F)Cl)C2(C)C = 7.96

Please give the measured pIC50 for this molecule: CC[C@H](C)[C@H](NC(=O)C1CC1(F)F)C(=O)N1C[C@H]2[C@@H]([C@H]1C(=O)NN(C[C@@H]1CCNC1=O)C(=O)[C@H](F)Cl)C2(C)C (mixture of isomers)
8.10

Repeat for the following molecule: CC[C@@H](C)[C@H](NC(=O)[C@@H](C)F)C(=O)N1C[C@H]2[C@@H]([C@H]1C(=O)NN(C[C@@H]1CCNC1=O)C(=O)[C@@H](F)Cl)C2(C)C
7.43

Repeat for the following molecule: CC(C)(C)[C@H](NC(=O)C(F)(F)C(F)(F)F)C(=O)N1C[C@H]2[C@@H]([C@H]1C(=O)NN(C[C@@H]1CCNC1=O)C(=O)[C@H](F)Cl)C2(C)C
8.10

Repeat for the following molecule: CCC(C)(C)[C@H](NC(=O)C(F)F)C(=O)N1C[C@@H]2CCC[C@@H]2[C@H]1C(=O)NN(C[C@@H]1CCNC1=O)C(=O)[C@@H](F)Cl
7.92

Repeat for the following molecule: CC[C@H](C)[C@H](NC(=O)CC(F)(F)F)C(=O)N1C[C@@H]2CCC[C@@H]2[C@H]1C(=O)NN(C[C@@H]1CCNC1=O)C(=O)[C@H](F)Cl
7.72
